All figures here come from PubChem BioAssay (Tox21).

- assay_procedure: Caspase-3/7 induction in HepG2 cells by small molecules, qHTS cell viability counter screen (AID 1346981); further: nearly all actives have a fitted effect of over 30% in size
- run_parameters: CellTiter-Fluor fluorescence, 17 h; series mostly up to 92.4 µM
Inconclusive results are not listed. Active and inactive are the calls of the source. The call rests on the fitted dose curve; in most records, active means well fitted cell-killing curve with a large enough effect in the repeat runs; inconclusive means weak or mixed curves, or effect the other way; inactive means flat fitted curve, though single readings scatter.
Parameter call: string, one of TRUE (active), FALSE (inactive)

Recorded call for CC(Cl)C(C)Cl (stereo not drawn) ?
FALSE

Recorded call for CCOP(=S)(OCC)Oc1nc(Cl)c(Cl)cc1Cl ?
FALSE

Recorded call for COCCOCCO ?
FALSE

Recorded call for O=NN1CCCCCC1 ?
FALSE

Recorded call for COP(=S)(Oc1cc(Cl)c(Br)cc1Cl)c1ccccc1 (stereo not drawn) ?
FALSE

Recorded call for O=[N+]([O-])c1ccc(F)c([N+](=O)[O-])c1 ?
TRUE

Recorded call for O=C(O)C1(c2ccc3c(c2)OC[C@H](Cc2ccc(-c4ccccc4)cc2)[C@H]3O)CCCC1 ?
FALSE

Recorded call for Nc1ccc([N+](=O)[O-])cc1[N+](=O)[O-] ?
TRUE

Recorded call for CCCN(CCCl)c1c([N+](=O)[O-])cc(C(F)(F)F)cc1[N+](=O)[O-] ?
FALSE

Recorded call for CCOP(=S)(OCC)SCSCC ?
FALSE

Recorded call for CCC(COC(=O)c1cc(OC)c(OC)c(OC)c1)(c1ccccc1)N(C)C (stereo not drawn) ?
FALSE

Recorded call for CC(Cl)Cl ?
FALSE

Recorded call for CCCCCCCCCCOC(=O)c1ccccc1C(=O)OCCCCCCCCCC ?
FALSE

----------
- target_system: Cytochrome P450 2C9 (Homo sapiens) (UniProt P11712)
- Sequence (P11712 whole entry, looked up): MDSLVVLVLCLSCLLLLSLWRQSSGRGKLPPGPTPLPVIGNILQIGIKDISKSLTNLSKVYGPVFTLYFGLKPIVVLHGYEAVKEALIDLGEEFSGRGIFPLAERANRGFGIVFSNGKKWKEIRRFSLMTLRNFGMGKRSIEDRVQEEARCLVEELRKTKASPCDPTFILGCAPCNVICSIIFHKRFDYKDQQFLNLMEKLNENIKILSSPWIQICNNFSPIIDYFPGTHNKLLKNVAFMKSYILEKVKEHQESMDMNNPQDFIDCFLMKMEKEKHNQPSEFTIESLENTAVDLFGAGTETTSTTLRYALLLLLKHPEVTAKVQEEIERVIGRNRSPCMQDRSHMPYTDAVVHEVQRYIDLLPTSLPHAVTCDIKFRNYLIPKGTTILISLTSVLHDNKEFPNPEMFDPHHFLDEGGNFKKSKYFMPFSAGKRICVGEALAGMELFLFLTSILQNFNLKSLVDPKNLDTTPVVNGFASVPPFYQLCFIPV
- assay_procedure: Cytochrome P450 Family 2 Subfamily C Member 9 (CYP2C9) small molecule antagonists: luciferase reporter qHTS assay (AID 1671198); further: nearly all actives have a fitted effect of over 50% in size
- run_parameters: P450-Glo CYP2C9 enzyme assay, luciferin luminescence; series mostly up to 115 µM
Results filed as inconclusive are left out. Calls of active or inactive are those of the source. Calls follow the shape of the dose curve; as a rule, active = well fitted inhibition curve with a large enough effect in the repeat runs; inconclusive = weak or mixed curves; inactive = no such curve, though single readings can be large or run the other way.
Parameter call: string, one of 1.0 (active), 0.0 (inactive)

Recorded call for Cc1ccc(-c2c(Cl)nc(C#N)n2S(=O)(=O)N(C)C)cc1 ?
1.0

Recorded call for COc1nn(C(=O)NS(=O)(=O)c2ccccc2OC(F)(F)F)c(=O)n1C ?
1.0

Recorded call for CCC(Cl)CCl (stereo not drawn) ?
0.0

Recorded call for CNP(=O)(OC)Oc1ccc(C(C)(C)C)cc1Cl (stereo not drawn) ?
1.0

Recorded call for O=C(O)c1ccccc1C(=O)Nc1cccc2ccccc12 ?
1.0

Recorded call for CCOC(=O)COc1cc(-c2nn(C)c(OC(F)F)c2Cl)c(F)cc1Cl ?
1.0

Recorded call for COc1nn(CSP(=S)(OC)OC)c(=O)s1 ?
1.0

Recorded call for CCC(C)(NC(=O)c1cc(Cl)c(C)c(Cl)c1)C(=O)CCl (stereo not drawn) ?
1.0

Recorded call for CO/C=C(/C(=O)OC)c1ccccc1COc1cccc(C(F)(F)F)n1 ?
1.0

Recorded call for O=C(O)C(F)(F)C(F)(F)C(F)(F)C(F)(F)C(F)(F)C(F)(F)C(F)(F)C(F)(F)C(F)(F)C(F)(F)F ?
1.0

Recorded call for COC(N)=O ?
0.0

Recorded call for O=C(C(Cl)(Cl)Cl)C(Cl)(Cl)Cl ?
0.0

Recorded call for CCCN(CCC)c1c([N+](=O)[O-])cc(S(C)(=O)=O)cc1[N+](=O)[O-] ?
1.0

Recorded call for COCC(C)N(C(=O)CCl)c1c(C)csc1C (stereo not drawn) ?
1.0

Recorded call for O=S1(=O)OC(c2cc(Br)c(O)c(Br)c2)(c2cc(Br)c(O)c(Br)c2)c2ccccc21 ?
1.0

Recorded call for CC1(C)[C@H](C=C(Cl)Cl)[C@@H]1C(=O)O[C@@H](C#N)c1cccc(Oc2ccccc2)c1 ?
1.0

Recorded call for C=CCCl ?
0.0

Recorded call for C=CC(C)=O ?
0.0
